Data origin, for the record: ChEMBL document CHEMBL5058577

System: HEK-293T
Test: Multiplex assay against HEK293T
Type: toxicity, cell-based
Conditions: human, 24 h, 1 µM, compound concentration 1 uM, replicate 1
What Population Hoechst High Intensity Objects (%) was measured for each of the following?
Give the value in % but do not write % after it.

### Prompt Entry COCCn1c(C)c(C)s/c1=N\C(=O)C1C(C)(C)C1(C)C has what Population Hoechst High Intensity Objects (%)?
### Response 4

### Prompt Need Population Hoechst High Intensity Objects (%), item C[C@H](NC(=O)CNC(=O)c1cccc(Cl)c1)c1ccccc1
### Response 4

### Prompt Could you share which Population Hoechst High Intensity Objects (%) value was measured for COC(c1ccccc1)(c1ccccc1)[C@H](Oc1nc(C)cc(C)n1)C(=O)O ?
### Response 4

### Prompt Which value of Population Hoechst High Intensity Objects (%) has been reported for Cn1cc(C(=O)OCC2CCN(CCNS(C)(=O)=O)CC2)c2ccccc21 in the records?
### Response 4

### Prompt Looking for the measured Population Hoechst High Intensity Objects (%) of COc1cc(OC2CCN(C(C)=O)CC2)ccc1C(=O)N1CCC(N2C(=O)OCc3ccccc32)CC1 , can you help?
### Response 4

### Prompt Given the entry CN1CCC(C(=O)c2cccc(NC(=O)c3c(F)cc(F)cc3F)n2)CC1 , report its measured Population Hoechst High Intensity Objects (%).
### Response 4

### Prompt Could you tell me which Population Hoechst High Intensity Objects (%) is on file for Cc1cc(=O)n(C)c2cc(N3C(=O)CC[C@H](NS(=O)(=O)CC(C)C)[C@H]3c3ccc(Cl)cc3)ccc12 ?
### Response 4

### Prompt Which Population Hoechst High Intensity Objects (%) reading was recorded for the compound O=c1nc2[nH]c3ccccc3nc-2c(=O)[nH]1 ?
### Response 4

---

System: Fibroblast
Assay: Multiplex assay against human fibroblast
Assay type: toxicity, cell-based
Settings: 48 h, 10 µM, compound concentration 10 uM, replicate 2
Non-standard residues stand in square brackets, D forms with d. Residues, ends and D or L forms follow the SMILES beside them.
What Population Apoptotic (%) was measured for each of the following?
Report as a plain number; the unit % is understood.

### Prompt I'd like to know its Population Apoptotic (%). The compound in question is Cc1sc2c(c1C)C(c1ccc(Cl)cc1)=N[C@H](CC(=O)OC(C)(C)C)c1nnc(C)n1-2
### Response 63

### Prompt Sample CN1CCN(c2ccc(Nc3c4ccccc4nc4ccccc34)cc2)CC1.Cl.Cl.O — what was its Population Apoptotic (%)?
### Response 0

### Prompt What does the record list as Population Apoptotic (%) for O=c1nc2[nH]c3ccccc3nc-2c(=O)[nH]1 [ALLOXAZINE] ?
### Response 45

### Prompt State the recorded Population Apoptotic (%) for this entry: CCn1c(-c2nc3cc(C(=O)N4CCCC(N)C4)ccc3n2C)cc2ccccc21.Cl (configuration not stated)
### Response 60

### Prompt Item S=C(NCCCc1c[nH]cn1)NCCCN(Cc1ccc(Cl)c(Cl)c1)c1ccc(Br)cn1 has what recorded Population Apoptotic (%)?
### Response 63

### Prompt Endpoint output: Population Apoptotic (%) of COc1c(Nc2ccc(S(C)(=O)=O)nc2C)ncnc1OC1CCN(C(=O)OC(C)C)CC1 [ADP-597] . Value?
### Response 75

### Prompt Which value of Population Apoptotic (%) has been reported for Cn1cc(C(=O)OCC2CCN(CCNS(C)(=O)=O)CC2)c2ccccc21 in the records?
### Response 50

### Prompt Would you kindly share the measured Population Apoptotic (%) for CN1CCC(C(=O)c2cccc(NC(=O)c3c(F)cc(F)cc3F)n2)CC1 ?
### Response 54

### Prompt Dear colleague, I am looking for the recorded Population Apoptotic (%) of the following compound: Cc1cc(NC(=O)NCCN2CCC(O)(Cc3ccccc3)CC2)c2ccccc2n1 [PALOSURAN]
### Response 61

### Prompt Given COc1ccc2c(c1OCc1ccccc1)C[C@@H](C(=O)O)N(C(=O)C(c1ccccc1)c1ccccc1)C2 [OLODANRIGAN] , state its recorded Population Apoptotic (%).
### Response 61

### Prompt Could you share which Population Apoptotic (%) value was measured for CC(C)C[C@@H]1NC(=O)[C@@H](C(C)C)NC(=O)[C@@H]2CCCN2C(=O)[C@@H](CC(=O)O)NC(=O)[C@@H](Cc2c[nH]c3ccccc23)NC1=O [BQ-123] (cyclo(L[dW][dD]P[dV])) ?
### Response 46

### Prompt Return reported Population Apoptotic (%); argument: Cc1cc(=O)n(C)c2cc(N3C(=O)CC[C@H](NS(=O)(=O)CC(C)C)[C@H]3c3ccc(Cl)cc3)ccc12
### Response 54

---

Tested on: Fibroblast
Test: Multiplex assay against human fibroblast
Assay type: toxicity, cell-based
Conditions: 24 h, 1 µM, compound concentration 1 uM, replicate 2
Consider the following molecules; for each one, report its Population Apoptotic (%).
Unit % implied. Number only.

### Prompt # query: Population Apoptotic (%) | item CCCCC[C@H](O)/C=C/[C@H]1[C@H](O)CC(=O)[C@@H]1CCCCCCC(=O)O [ALPROSTADIL] | system: Fibroblast
### Response 43

### Prompt Lab note: need Population Apoptotic (%) with Fibroblast for entry Cn1cc(C(=O)OCC2CCN(CCNS(C)(=O)=O)CC2)c2ccccc21 , please look it up.
### Response 30

### Prompt Return Population Apoptotic (%) measured with Fibroblast given this molecule: C[C@H](NC(=O)CNC(=O)c1cccc(Cl)c1)c1ccccc1
### Response 33

### Prompt Give recorded Population Apoptotic (%) with Fibroblast for the following molecule: CCc1nn2c(C)cc(C)nc2c1Cc1ccc(-c2nnc(C3CCNCC3)o2)cc1
### Response 56

### Prompt Can you look up Population Apoptotic (%) on Fibroblast for CC(C)(O)C(=O)N1CCN(c2ccc(C(F)(F)F)c(C3=C(c4c[nH]c5ccccc45)C(=O)NC3=O)c2)CC1 ?
### Response 31

### Prompt API: value(readout=Population Apoptotic (%), system=Fibroblast) for record CN(C)C(=O)Cn1cc(-c2ccc(-c3nnc4ccccn34)cc2)cn1
### Response 54

### Prompt Hello, I am looking for reported Population Apoptotic (%) with Fibroblast for COc1cc(OC2CCN(C(C)=O)CC2)ccc1C(=O)N1CCC(N2C(=O)OCc3ccccc32)CC1 . Could you help?
### Response 48

### Prompt What measured Population Apoptotic (%) is associated with CSc1nc(NC2CCCC2)c([N+](=O)[O-])c(NC2CCCC2)n1 [GS-39783] on Fibroblast?
### Response 32

---

Give Total Cell Count for every item shown.
Test system: Fibroblast
Test: Multiplex assay against human fibroblast
Format: toxicity, cell-based
Settings: 48 h, 10 µM, compound concentration 10 uM, replicate 1
Number, no unit, nothing else.

### Prompt So what's the measured Total Cell Count for this one? COC(c1ccccc1)(c1ccccc1)[C@H](Oc1nc(C)cc(C)n1)C(=O)O [AMBRISENTAN]
### Response 145

### Prompt Which Total Cell Count value is on record for O=C(O)CCC/C=C\CC1C(O)CC(O)C1/C=C/C(O)COc1cccc(Cl)c1 (stereo not drawn) [CLOPROSTENOL] ?
### Response 205

### Prompt Please give the measured Total Cell Count for this molecule: CC(C)(O)C(=O)N1CCN(c2ccc(C(F)(F)F)c(C3=C(c4c[nH]c5ccccc45)C(=O)NC3=O)c2)CC1
### Response 123

---

Tested on: HEK-293T
Experiment: Multiplex assay against HEK293T
Format: toxicity, cell-based
Details: human, 24 h, 10 µM, compound concentration 10 uM, replicate 1
I'd be grateful if you could share measured Population Mitochondria Different-Phenotype (%) for these entries.
Quick reminder: number only, in %, skip the unit.

### Prompt Give its Population Mitochondria Different-Phenotype (%) value. Item: O=C(Nc1cc(-c2ccccc2)nn1-c1ccccc1F)c1ccc([N+](=O)[O-])cc1
### Response 35

### Prompt Reported Population Mitochondria Different-Phenotype (%) for O=c1ccc2ccc(OCCCCN3CCN(c4cccc5sccc45)CC3)cc2[nH]1 : what is it?
### Response 100

### Prompt Dear colleague, I am looking for the recorded Population Mitochondria Different-Phenotype (%) of the following compound: Nc1nc(-c2ccco2)c2cnn(Cc3ccccc3F)c2n1
### Response 52

### Prompt Quick one: Population Mitochondria Different-Phenotype (%) for COc1cc(Nc2ncc3c(n2)-c2ccc(Cl)cc2C(c2c(F)cccc2OC)=NC3)ccc1C(=O)O ?
### Response 75

### Prompt Request the reported Population Mitochondria Different-Phenotype (%) associated with CCc1nn2c(C)cc(C)nc2c1Cc1ccc(-c2nnc(C3CCNCC3)o2)cc1
### Response 73

### Prompt If you can, please state the reported Population Mitochondria Different-Phenotype (%) value of C[C@H](NC(=O)CNC(=O)c1cccc(Cl)c1)c1ccccc1 .
### Response 39

### Prompt What value of measured Population Mitochondria Different-Phenotype (%) is listed for Cl.Cl.OCCOCCN1CCN(C(c2ccccc2)c2ccc(Cl)cc2)CC1 (stereo unspecified) [HYDROXYZINE HYDROCHLORIDE] ?
### Response 55

### Prompt // lookup Population Mitochondria Different-Phenotype (%) for CCCCC[C@H](O)/C=C/[C@H]1[C@H](O)CC(=O)[C@@H]1CCCCCCC(=O)O
### Response 26

### Prompt Give its Population Mitochondria Different-Phenotype (%) value. Item: COc1cc2nc(N3CCN(C(=O)c4ccco4)CC3)nc(N)c2cc1OC.Cl [PRAZOSIN HYDROCHLORIDE]
### Response 40

### Prompt Which Population Mitochondria Different-Phenotype (%) reading was recorded for the compound COc1cc(C(=O)N2CC[C@@H](O)[C@@H](N)C2)cc2nc(-c3cc4ccccc4n3CC3CC3)n(C)c12.Cl ?
### Response 94

### Prompt Reported Population Mitochondria Different-Phenotype (%), compound OCCCNc1cc(-c2ccnc(Nc3cccc(Cl)c3)n2)ccn1 : ____
### Response 85

### Prompt Which Population Mitochondria Different-Phenotype (%) reading was recorded for the compound C=CCN1C[C@H](C(=O)N(CCCN(C)C)C(=O)NCC)C[C@@H]2c3cccc4[nH]cc(c34)C[C@H]21 ?
### Response 51

### Prompt Value lookup for Population Mitochondria Different-Phenotype (%); key = COc1ccc2c(c1OCc1ccccc1)C[C@@H](C(=O)O)N(C(=O)C(c1ccccc1)c1ccccc1)C2
### Response 34

### Prompt // lookup Population Mitochondria Different-Phenotype (%) for COc1cc(OC2CCN(C(C)=O)CC2)ccc1C(=O)N1CCC(N2C(=O)OCc3ccccc32)CC1
### Response 44

### Prompt Dear colleague, I am looking for the recorded Population Mitochondria Different-Phenotype (%) of the following compound: CC(C)C[C@H](CO)Nc1nc(S[C@@H](C)c2ccccc2)nc2nc(N)sc12
### Response 64

### Prompt Value lookup for Population Mitochondria Different-Phenotype (%); key = Cc1nn(C)c2nc(NNC(=O)Nc3cc(Cl)nc(Cl)c3)cc(C(C)C)c12
### Response 78

### Prompt Looking for the measured Population Mitochondria Different-Phenotype (%) of Cc1cc(NC(=O)NCCN2CCC(O)(Cc3ccccc3)CC2)c2ccccc2n1 , can you help?
### Response 43

### Prompt Given the compound Nc1nc(CC(=O)Nc2ccc(CCNC[C@H](O)c3ccccc3)cc2)cs1 , what is its reported Population Mitochondria Different-Phenotype (%)?
### Response 32

### Prompt Which Population Mitochondria Different-Phenotype (%) value is on record for Cc1c(Cc2ccc3ccccc3n2)c2cc(F)ccc2n1CC(=O)O ?
### Response 31

### Prompt Returns the measured Population Mitochondria Different-Phenotype (%) for the input compound. Input: Cc1sc2c(c1C)C(c1ccc(Cl)cc1)=N[C@H](CC(=O)OC(C)(C)C)c1nnc(C)n1-2
### Response 64

### Prompt Suppose we examine the compound CN(C)C/C=C/C(=O)Nc1ccc(C(=O)N2CCCC(Nc3ncc(Cl)c(-c4c[nH]c5ccccc45)n3)C2)cc1 (stereo unspecified) ; what Population Mitochondria Different-Phenotype (%) value has been reported?
### Response 96

### Prompt Returns the measured Population Mitochondria Different-Phenotype (%) for the input compound. Input: CC(F)(F)CN1CCOc2c(nn(-c3ccccc3Cl)c2-c2ccc(Cl)cc2)C1=O
### Response 71

### Prompt Using the record for N[C@](CC1c2ccccc2Oc2ccccc21)(C(=O)O)[C@H]1C[C@@H]1C(=O)O , report its Population Mitochondria Different-Phenotype (%).
### Response 30

### Prompt Which Population Mitochondria Different-Phenotype (%) value is on record for COc1c(Nc2ccc(S(C)(=O)=O)nc2C)ncnc1OC1CCN(C(=O)OC(C)C)CC1 ?
### Response 58

### Prompt Need Population Mitochondria Different-Phenotype (%) of Cc1cc(-c2ccc3c(c2)CC[C@H]3N2CC3(CCN(C(=O)Cc4cn5cc(C)sc5n4)CC3)C2)ncn1 , thanks.
### Response 28

### Prompt Look up Population Mitochondria Different-Phenotype (%) for this compound: Cc1cc(=O)n(C)c2cc(N3C(=O)CC[C@H](NS(=O)(=O)CC(C)C)[C@H]3c3ccc(Cl)cc3)ccc12
### Response 67

### Prompt Query (compound): Cc1cc(O)c(-c2ccc([C@@H](C)CN(C)C)cc2)c2c1[nH]c(=O)c1sccc12 ; field requested: Population Mitochondria Different-Phenotype (%)
### Response 92

### Prompt What measured Population Mitochondria Different-Phenotype (%) goes with CN1C[C@H](C(=O)N[C@]2(C)O[C@@]3(O)[C@@H]4CCCN4C(=O)[C@H](Cc4ccccc4)N3C2=O)C[C@@H]2c3cccc4[nH]cc(c34)C[C@H]21.CS(=O)(=O)O [DIHYDROERGOTAMINE MESYLATE] ?
### Response 33

### Prompt May I ask what Population Mitochondria Different-Phenotype (%) has been recorded for Cc1ccc(OCC(O)C(C)NC(C)C)c2c1CCC2.Cl (stereo unspecified) ?
### Response 53

### Prompt Give its Population Mitochondria Different-Phenotype (%) value. Item: CCC(=O)OCC(=O)[C@@]1(OC(=O)CC)[C@@H](C)C[C@H]2[C@@H]3CCC4=CC(=O)C=C[C@]4(C)[C@@]3(Cl)[C@@H](O)C[C@@]21C [BECLOMETHASONE DIPROPIONATE]
### Response 89

### Prompt I am curious: what Population Mitochondria Different-Phenotype (%) value has been reported for CN1CCN(c2ccc(Nc3c4ccccc4nc4ccccc34)cc2)CC1.Cl.Cl.O ?
### Response 100
